- System: PANC-1
- assay_method_text: Antiproliferative activity against human PANC-1 cells assessed as inhibition of cell growth incubated for 24 hrs by MTT assay
- Type: functional, cell-based
- experimental_parameters: PANC-1, 24 h
measurement_name: IC50 (µM)
Give bare numbers, in µM.

IN: What does the data say about its IC50? Entry: C[C@@H](C[C@@H](O)[C@@H]1OC1(C)C)[C@@H]1CC[C@]2(C)C3=CC[C@H]4C(C)(C)C(=O)CC[C@]4(C)[C@H]3CC[C@@]12C
OUT: 16.5

* * *

- assay_method_text: Cytotoxicity against human MCF-10A cells assessed as inhibition of cell growth incubated for 24 hrs by MTT assay
- Assay type: toxicity, cell-based
measurement_name: IC50 at 24 h (µM)
One number for each entry, in µM.

IN: What does the data say about its IC50 at 24 h? Entry: C[C@@H](C[C@@H](O)[C@@H]1OC1(C)C)[C@@H]1CC[C@]2(C)C3=CC[C@H]4C(C)(C)C(=O)CC[C@]4(C)[C@H]3CC[C@@]12C
OUT: 83.3

Where do these numbers come from? They come from ChEMBL document CHEMBL6083205.
